Target: Annexin A5 (ANXA5) (Homo sapiens)
Construct: recombinant protein purified from E. coli; His-tag labelled for MST
Sequence (P08758 2-320): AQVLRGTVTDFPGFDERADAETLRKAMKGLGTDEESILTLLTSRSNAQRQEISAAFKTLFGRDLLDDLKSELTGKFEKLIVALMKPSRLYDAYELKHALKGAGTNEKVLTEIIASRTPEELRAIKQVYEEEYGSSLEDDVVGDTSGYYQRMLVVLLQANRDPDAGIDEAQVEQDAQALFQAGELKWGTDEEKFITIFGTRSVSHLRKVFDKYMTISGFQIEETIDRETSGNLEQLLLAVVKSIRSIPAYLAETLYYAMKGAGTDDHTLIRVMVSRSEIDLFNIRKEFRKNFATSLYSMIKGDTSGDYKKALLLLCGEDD
Assay: microscale thermophoresis
Assay Metric: Kd (µM)
State the answer as a number, implicitly in µM.

Ask: Would you kindly share the measured Kd for O=C(O)/C=C/c1ccc(O)c(O)c1 [CA, caffeic acid] ?
Result: 3.68
